Target: hFASN enzyme (full length) (Homo sapiens, UniProt P49327)
Construct: 10 μL hFASN enzyme (full length, 300 ng, purified in house); made in house
Sequence (P49327 whole entry): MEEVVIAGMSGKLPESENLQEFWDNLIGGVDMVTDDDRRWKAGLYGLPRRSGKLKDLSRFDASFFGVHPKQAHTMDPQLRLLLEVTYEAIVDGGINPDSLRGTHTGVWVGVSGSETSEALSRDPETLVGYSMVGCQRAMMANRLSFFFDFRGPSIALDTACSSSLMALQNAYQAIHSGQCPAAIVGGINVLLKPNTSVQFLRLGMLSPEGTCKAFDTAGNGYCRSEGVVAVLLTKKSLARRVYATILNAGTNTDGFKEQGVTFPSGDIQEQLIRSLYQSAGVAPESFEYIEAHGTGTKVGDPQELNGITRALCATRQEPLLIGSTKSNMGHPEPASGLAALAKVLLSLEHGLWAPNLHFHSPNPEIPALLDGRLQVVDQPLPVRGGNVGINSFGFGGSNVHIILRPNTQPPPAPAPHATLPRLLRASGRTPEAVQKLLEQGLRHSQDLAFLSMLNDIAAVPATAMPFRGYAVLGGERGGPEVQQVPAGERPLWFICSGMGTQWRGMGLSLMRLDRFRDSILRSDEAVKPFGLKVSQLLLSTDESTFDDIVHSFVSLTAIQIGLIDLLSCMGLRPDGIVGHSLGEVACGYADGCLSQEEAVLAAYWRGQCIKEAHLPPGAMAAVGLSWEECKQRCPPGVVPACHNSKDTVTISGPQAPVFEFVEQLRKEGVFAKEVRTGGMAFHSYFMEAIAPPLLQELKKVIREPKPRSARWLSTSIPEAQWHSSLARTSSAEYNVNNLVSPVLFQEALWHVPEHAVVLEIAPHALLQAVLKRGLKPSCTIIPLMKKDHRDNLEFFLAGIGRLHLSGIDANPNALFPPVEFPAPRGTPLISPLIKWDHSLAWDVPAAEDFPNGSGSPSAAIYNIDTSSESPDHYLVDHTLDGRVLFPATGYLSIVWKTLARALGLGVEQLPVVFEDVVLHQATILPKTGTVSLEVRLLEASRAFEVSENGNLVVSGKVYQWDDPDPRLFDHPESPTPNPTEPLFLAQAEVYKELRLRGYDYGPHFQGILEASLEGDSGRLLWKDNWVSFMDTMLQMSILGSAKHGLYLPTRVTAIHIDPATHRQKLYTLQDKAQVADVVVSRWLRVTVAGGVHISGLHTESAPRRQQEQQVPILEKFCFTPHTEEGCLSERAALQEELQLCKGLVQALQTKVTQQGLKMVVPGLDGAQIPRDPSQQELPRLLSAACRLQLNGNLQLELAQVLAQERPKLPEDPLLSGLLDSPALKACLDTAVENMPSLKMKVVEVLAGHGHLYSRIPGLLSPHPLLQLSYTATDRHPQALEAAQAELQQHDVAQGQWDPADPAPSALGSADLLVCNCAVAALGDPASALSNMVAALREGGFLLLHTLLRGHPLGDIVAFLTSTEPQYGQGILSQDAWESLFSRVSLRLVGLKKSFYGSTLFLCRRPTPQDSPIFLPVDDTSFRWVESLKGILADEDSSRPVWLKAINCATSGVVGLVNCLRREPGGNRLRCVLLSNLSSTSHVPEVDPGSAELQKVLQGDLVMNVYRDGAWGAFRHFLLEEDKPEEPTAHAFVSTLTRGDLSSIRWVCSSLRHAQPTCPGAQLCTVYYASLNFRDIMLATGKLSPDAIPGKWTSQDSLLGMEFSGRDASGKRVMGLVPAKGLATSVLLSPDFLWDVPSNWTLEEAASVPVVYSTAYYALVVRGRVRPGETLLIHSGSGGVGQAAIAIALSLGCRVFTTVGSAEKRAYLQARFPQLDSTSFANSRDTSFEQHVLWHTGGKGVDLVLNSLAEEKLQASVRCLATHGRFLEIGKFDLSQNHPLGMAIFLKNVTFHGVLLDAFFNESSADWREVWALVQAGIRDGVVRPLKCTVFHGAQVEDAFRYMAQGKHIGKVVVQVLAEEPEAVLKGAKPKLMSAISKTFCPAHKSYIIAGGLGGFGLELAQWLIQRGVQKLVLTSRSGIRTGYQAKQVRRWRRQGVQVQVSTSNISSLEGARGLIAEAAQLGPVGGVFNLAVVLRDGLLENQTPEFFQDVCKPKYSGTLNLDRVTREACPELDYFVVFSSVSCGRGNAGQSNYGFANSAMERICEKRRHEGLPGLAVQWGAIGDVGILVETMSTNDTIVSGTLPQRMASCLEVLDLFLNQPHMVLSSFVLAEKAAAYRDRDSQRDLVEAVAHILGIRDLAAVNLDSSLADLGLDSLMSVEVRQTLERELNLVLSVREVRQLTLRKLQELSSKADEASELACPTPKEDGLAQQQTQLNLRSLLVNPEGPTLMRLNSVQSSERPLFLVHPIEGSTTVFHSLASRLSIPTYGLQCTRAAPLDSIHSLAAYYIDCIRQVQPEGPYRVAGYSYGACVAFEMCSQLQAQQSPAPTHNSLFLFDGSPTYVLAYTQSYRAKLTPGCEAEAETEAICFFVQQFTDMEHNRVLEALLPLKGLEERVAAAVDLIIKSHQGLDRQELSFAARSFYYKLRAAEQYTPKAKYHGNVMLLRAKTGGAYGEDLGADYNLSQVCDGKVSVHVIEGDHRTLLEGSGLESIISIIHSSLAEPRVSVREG
Assay: Fatty Acid Synthase (FASN) Inhibition Scintillation Proximity Assay
Assay type: biochemical
Settings: read-out: FASN % Effect @1E−05M
Measurement name: inhibition at 10 µM (%)

* Cc1ccc(C(=O)N2CCC(c3ccc(-c4cnn(C)c4)cc3)CC2)cc1NC(=O)C1CCN(C2CCC2)CC1 [Compound 209] | 105
* COc1ccc(C(=O)Nc2cc(C(=O)N3CCC(c4ccc(-c5cnn(C)c5)cc4)CC3)ccc2C)cc1 [Compound 93] | 100
* Cc1ccc(C(=O)N2CCC(c3ccc(-c4cccc(F)c4)cc3)CC2)cc1NC(=O)c1ccc(NC(C)C)nc1 [Compound 230] | 79
* Cc1ccc(C(=O)N2CCC(c3ccc(-c4cnn(C)c4)cc3)CC2)cc1NC(=O)c1cc(F)ccc1C [Compound 137] | 103
* CC(C)Nc1ccc(C(=O)Nc2cc(C(=O)N3CCC(c4ccc(-c5cnn(C)c5)cc4)CC3)ccc2O)cn1 [Compound 269] | 107
* Cc1ccc(C(=O)N2CCC(c3ccc4c(c3)NC(=O)CC4)CC2)cc1NC(=O)c1ccc(Cl)nc1 [Compound 23] | 93
* Cc1ccc(C(=O)N2CCC(c3ncc(-c4cnn(C)c4)cn3)CC2)cc1NC(=O)c1ccc(NC(C)C)nc1 [Compound 258] | 99
